// provenance: patent US8759333B2

assayed system: mutant MGL (mut-MGLL 11-313 L179S L186S) (Homo sapiens, UniProt Q99685, L169S/L176S)
Construct: purified mutant MGL (mut-MGLL 11-313 L179S L186S)
experiment description: MGL Enzyme Activity Assay, purified mutant MGL, 4MU-B substrate
test settings: mutant MGL 5 nM, 4MU-B 10 μM, 37° C.; read-out: MGL mutant inh IC50
Recorded pIC50, one value per entry.
# pIC50 = -log10(concentration in molar units)

Field: example entries. Status: answers known.
smiles	pIC50
O=C(c1ccccc1)c1ccc(C(=O)N2CC(N3CC(NC(=O)c4nccs4)C3)C2)cc1	6.23
O=C(NC1CN(C2CN(C(=O)c3ccc(Br)cc3)C2)C1)c1nccs1	5.77

Okay, next one:
What the record says about O=C(NC1CN(C2CN(C(=O)c3ccc4cc(Br)ccc4c3)C2)C1)c1nccs1 : pIC50 is 6.05

====

assayed system: wild type MGL (wt-MGLL 6H-11-313) (Homo sapiens)
Sequence (Q99685 1-303): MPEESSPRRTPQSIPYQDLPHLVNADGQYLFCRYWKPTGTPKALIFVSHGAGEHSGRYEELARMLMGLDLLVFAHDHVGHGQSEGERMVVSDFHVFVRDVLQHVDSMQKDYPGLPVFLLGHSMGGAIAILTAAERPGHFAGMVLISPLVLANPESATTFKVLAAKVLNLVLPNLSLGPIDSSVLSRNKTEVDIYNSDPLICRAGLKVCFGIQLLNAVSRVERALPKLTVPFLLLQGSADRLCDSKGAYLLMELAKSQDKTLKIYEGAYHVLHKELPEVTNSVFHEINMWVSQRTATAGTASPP
pIC50: −log10 of the molar value.
Classification field: enter t for pIC50 values not below 8, f for values below it.

Some entries whose results are on file:
smiles	class assignment
O=C(c1ccc2c(ccn2-c2ccc(C(F)(F)F)cc2)c1)N1CC(N2CC(N3Cc4scnc4C3=O)C2)C1	t
O=C(NC1CN(C2CN(C(=O)c3ccc(-c4ccc(C(F)(F)F)cc4)cc3)C2)C1)c1nccs1	t
O=C(NC1CN(C2CN(C(=O)c3cc4ccc(C(F)(F)F)cc4s3)C2)C1)c1nccs1	t

[Q] Is the recorded value of pIC50 equal to or greater than 8 for this molecule? O=C(NC1CN(C2CN(C(=O)c3ccc4c(ccn4-c4ccc(F)c(F)c4)c3)C2)C1)c1cscn1
[A] t

[Q] API: above_or_equal(metric=pIC50, cutoff=8) for item Cc1cc(-c2ccc(C(F)(F)F)cc2)ccc1C(=O)N1CC(N2CC(N3Cc4scnc4C3=O)C2)C1
[A] f

[Q] Hello, I need to know if O=C(NC1CN(C2CN(C(=O)c3ccc4nc(-c5ccccc5)oc4c3)C2)C1)c1nccs1 has measured pIC50 not below 8. Thanks!
[A] f

[Q] hey, is pIC50 for this one >= 8? O=C(NC1CN(C2CN(C(=O)c3ccc(-c4ccc(C(F)(F)F)s4)cc3)C2)C1)c1nccs1
[A] f

[Q] Please check the record O=C(c1sc2cc(Br)ccc2c1Cl)N1CC(N2CC(N3Cc4ccccc4C3=O)C2)C1 and state if its pIC50 is at or above 8.
[A] t

[Q] Record O=C(c1ccc2c(ccn2-c2ccc(C(F)(F)F)cc2)c1)N1CC(N2CC(N3Cc4ccccc4C3=O)C2)C1 ; criterion: pIC50 no lower than 8. Met?
[A] t

[Q] Is it the case that Cc1c(C(=O)N2CC(N3CC(N4Cc5scnc5C4=O)C3)C2)sc2cc(C(F)(F)F)ccc12 has pIC50 reaching or exceeding 8?
[A] f
